The measured values listed here are drawn from ChEMBL document CHEMBL3991601.

target: Serine/threonine-protein kinase TAO3 (Homo sapiens, UniProt Q9H2K8); note: in the data inactive means no Kd found up to 30 µM
Sequence (Q9H2K8 whole entry): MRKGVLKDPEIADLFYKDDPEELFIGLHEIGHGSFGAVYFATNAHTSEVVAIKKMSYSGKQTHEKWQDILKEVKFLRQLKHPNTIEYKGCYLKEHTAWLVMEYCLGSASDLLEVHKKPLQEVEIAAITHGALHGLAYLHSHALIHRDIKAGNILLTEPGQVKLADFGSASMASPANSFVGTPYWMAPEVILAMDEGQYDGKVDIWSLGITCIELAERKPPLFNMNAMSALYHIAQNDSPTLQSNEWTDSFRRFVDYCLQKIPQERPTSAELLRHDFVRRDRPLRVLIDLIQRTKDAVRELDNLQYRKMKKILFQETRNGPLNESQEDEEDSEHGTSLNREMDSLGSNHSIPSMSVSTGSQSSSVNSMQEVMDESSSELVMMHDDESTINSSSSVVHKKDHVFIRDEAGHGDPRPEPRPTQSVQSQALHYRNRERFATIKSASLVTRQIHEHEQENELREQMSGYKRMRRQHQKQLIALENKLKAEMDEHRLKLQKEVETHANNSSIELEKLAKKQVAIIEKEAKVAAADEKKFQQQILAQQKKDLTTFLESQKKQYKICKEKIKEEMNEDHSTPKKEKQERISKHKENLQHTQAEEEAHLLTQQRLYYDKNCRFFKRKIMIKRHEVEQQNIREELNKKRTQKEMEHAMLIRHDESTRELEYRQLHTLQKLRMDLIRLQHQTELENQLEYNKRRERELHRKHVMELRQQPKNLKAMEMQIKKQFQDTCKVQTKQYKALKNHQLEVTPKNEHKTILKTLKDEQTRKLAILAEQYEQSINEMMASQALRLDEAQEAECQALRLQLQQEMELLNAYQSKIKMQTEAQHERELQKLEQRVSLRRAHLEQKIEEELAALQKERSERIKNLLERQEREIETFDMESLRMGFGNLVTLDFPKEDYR
Calls of active or inactive are those of the source.
Entry note: the call must match one of active, inactive

Query: Kindly provide the recorded test outcome for the following molecule: CNS(=O)(=O)Nc1nccc(Cc2c(C)c3ccc(Oc4ncccn4)cc3oc2=O)c1F [AVUTOMETINIB]
Response: inactive

Query: Another molecule: `N[C@@H]1CCCN(c2c(/C=C3\SC(=O)NC3=O)cccc2-c2ccccc2)C1`
Response: inactive

Query: Also check COc1cc2nccc(Oc3ccc(NC(=O)NC4CC4)c(Cl)c3)c2cc1C(N)=O [LENVATINIB]
Response: inactive

Query: Request: CNC(=O)c1ccc(-c2cnc3ncc(Cc4ccc5ncccc5c4)n3n2)cc1F [CAPMATINIB]
Response: inactive

Query: Queued: COC(=O)N[C@@H](C)CNc1nccc(-c2cn(C(C)C)nc2-c2cc(Cl)cc(NS(C)(=O)=O)c2F)n1 [ENCORAFENIB]
Response: active

Query: What do we get for CNC(=O)c1cc(Oc2ccc(NC(=O)Nc3ccc(Cl)c(C(F)(F)F)c3)c(F)c2)ccn1 [REGORAFENIB] ?
Response: inactive

Query: Please do the same for CC(=O)Nc1cccc(-n2c(=O)n(C3CC3)c(=O)c3c(Nc4ccc(I)cc4F)n(C)c(=O)c(C)c32)c1 [TRAMETINIB] as well.
Response: inactive

Query: Now try C1=C/COCc2cc(ccc2OCCN2CCCC2)Nc2nccc(n2)-c2cccc(c2)COC/1 [PACRITINIB] .
Response: inactive

Query: Try COc1ccc(-c2ccc3c(N4CCOC[C@@H]4C)nc(N4CCOC[C@@H]4C)nc3n2)cc1CO [AZD-8055] next.
Response: inactive

Query: Now consider C[C@@H]1CN(Cc2ccc(F)cc2)[C@@H](C)CN1C(=O)c1cc2c(C(=O)C(=O)N(C)C)cn(C)c2cc1Cl [TALMAPIMOD] .
Response: inactive

Query: // same read-out, input: COc1cc(OC)c(/C=C/S(=O)(=O)Cc2ccc(OC)c(NCC(=O)O)c2)c(OC)c1 [RIGOSERTIB]
Response: inactive

Query: Would you mind doing CCN1CCN(Cc2ccc(-c3cc4c(N[C@H](C)c5ccccc5)ncnc4[nH]3)cc2)CC1 [AEE-788] as well?
Response: inactive

Query: Similarly, Cc1ccc(-n2nc(C(C)(C)C)cc2NC(=O)NCc2cc(F)ccc2Oc2ccc3c(cnn3CCO)c2)cc1 [PEXMETINIB] ?
Response: inactive

----------
target: Ribosomal protein S6 kinase alpha-3 (Homo sapiens, UniProt P51812); note: in the data inactive means no Kd found up to 30 µM
Sequence (P51812 whole entry): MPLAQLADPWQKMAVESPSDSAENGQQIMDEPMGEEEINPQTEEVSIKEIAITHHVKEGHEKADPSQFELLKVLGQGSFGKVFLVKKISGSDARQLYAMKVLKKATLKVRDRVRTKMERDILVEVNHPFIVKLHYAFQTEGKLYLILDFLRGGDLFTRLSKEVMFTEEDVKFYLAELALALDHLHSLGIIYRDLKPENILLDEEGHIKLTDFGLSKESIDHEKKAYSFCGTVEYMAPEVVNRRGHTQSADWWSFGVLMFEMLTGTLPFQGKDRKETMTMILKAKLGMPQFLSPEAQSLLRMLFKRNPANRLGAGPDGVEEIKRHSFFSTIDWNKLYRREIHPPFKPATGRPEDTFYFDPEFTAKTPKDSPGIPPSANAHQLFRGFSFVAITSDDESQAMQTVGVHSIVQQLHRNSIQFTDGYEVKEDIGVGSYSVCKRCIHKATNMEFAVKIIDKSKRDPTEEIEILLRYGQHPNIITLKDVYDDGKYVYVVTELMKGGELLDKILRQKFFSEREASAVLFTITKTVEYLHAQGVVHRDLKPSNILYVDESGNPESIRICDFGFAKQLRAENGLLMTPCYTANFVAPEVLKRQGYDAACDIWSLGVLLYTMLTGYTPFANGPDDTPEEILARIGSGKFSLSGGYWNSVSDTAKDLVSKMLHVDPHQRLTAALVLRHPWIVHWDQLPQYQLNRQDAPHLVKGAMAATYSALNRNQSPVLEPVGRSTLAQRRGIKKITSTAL
Calls of active or inactive are those of the source.
# output must be one of active, inactive

Query: Can you look up the reported call for CN1N=C(N)c2cn([C@@H]3O[C@H](COP(=O)(O)O)[C@@H](O)[C@H]3O)c3ncnc1c23 [TRICIRIBINE PHOSPHATE] for me?
Response: inactive

Query: Similarly, `CC[C@@H]1C(=O)N(C)c2cnc(Nc3ccc(C(=O)N[C@H]4CC[C@H](N5CCN(CC6CC6)CC5)CC4)cc3OC)nc2N1C(C)C` ?
Response: inactive

Query: // repeat for O=C(Nc1ccc(-c2ccnc(Nc3ccc(N4CCOCC4)cc3)n2)cc1)C1CCCN1 (configuration not stated) and report
Response: inactive

Query: Moving on to the next compound: `CC[C@H](Nc1ncnc2[nH]cnc12)c1nc2cccc(F)c2c(=O)n1-c1ccccc1`
Response: inactive

Query: Next up: `Cc1ccc(S(=O)(=O)Nc2nc3ccccc3nc2Nc2ccc3nsnc3c2)cc1`
Response: inactive

Query: What do you have for `COC(=O)N[C@@H](C)CNc1nccc(-c2cn(C(C)C)nc2-c2cc(Cl)cc(NS(C)(=O)=O)c2F)n1` ?
Response: inactive

Query: Also `Cc1cc(-c2cc(O)ccc2Cl)cc2nnc(Nc3ccc(OCCN4CCCC4)cc3)nc12` ?
Response: inactive

Query: Also need `CN1CCC(COc2cnc(-c3cccc(Cn4nc(-c5cccc(C#N)c5)ccc4=O)c3)nc2)CC1` , thanks.
Response: inactive

Query: Same read-out for `C=CC(=O)N1CCC(Oc2cc3c(Nc4ccc(Cl)c(Cl)c4F)ncnc3cc2OC)CC1` ?
Response: inactive

Query: # repeat for `CC(C)Nc1cc(-c2c[nH]c(C(=O)N[C@H](CO)c3cccc(Cl)c3)c2)c(Cl)cn1`
Response: inactive

Query: Param item: `Cc1ccc(NC(=O)c2ccc(CN3CC[C@H](N(C)C)C3)c(C(F)(F)F)c2)cc1Nc1nccc(-c2cncnc2)n1`
Response: inactive

Query: Okay, and `COc1cc2nccc(Oc3ccc(NC(=O)Nc4cc(C)on4)c(Cl)c3)c2cc1OC` ?
Response: inactive

Query: Now consider `O=c1sn(-c2cccc3ccccc23)c(=O)n1Cc1ccccc1` and answer again.
Response: inactive

Query: Also check `CNC(=O)c1ccc(C)c(-n2c(C)cc(OCc3ccc(F)cc3F)c(Br)c2=O)c1`
Response: inactive

Query: Do the same for `CCS(=O)(=O)N1CC(CC#N)(n2cc(-c3ncnc4[nH]ccc34)cn2)C1` please
Response: inactive

Query: Entry to check: `Cn1ncc(Cl)c1-c1cc(C(=O)N[C@H](CN)Cc2cccc(F)c2)sc1Cl`
Response: inactive

Query: Now consider `CNC(=O)CN1CCC(Oc2cc3c(Nc4cccc(Cl)c4F)ncnc3cc2OC)CC1` .
Response: inactive

Query: Quick one: `C1=C/COCc2cc(ccc2OCCN2CCCC2)Nc2nccc(n2)-c2cccc(c2)COC/1`
Response: inactive

Query: Please do the same for COC(=O)[C@@]1(O)C[C@H]2O[C@]1(C)n1c3ccccc3c3c4c(c5c6ccccc6n2c5c31)C(=O)NC4 [K-252A] as well.
Response: active

Query: Request: `Cc1ccc(-n2nc(C(C)(C)C)cc2NC(=O)NCc2cc(F)ccc2Oc2ccc3c(cnn3CCO)c2)cc1`
Response: inactive

Query: What about `Cn1cc(-c2ccc3nnc(C(F)(F)c4ccc5ncccc5c4)n3n2)cn1` ?
Response: inactive

Query: Okay, and `CN1CCC(CNc2ccc3ncc(-c4cccc(OC(F)(F)F)c4)n3n2)CC1` ?
Response: inactive

Query: Further, for `C[C@@H](Nc1cc(F)cc(F)c1)c1cc(C(=O)N(C)C)cc2c(=O)cc(N3CCOCC3)oc12` ?
Response: inactive

Query: Consider next the compound `CNC(=O)c1cc(Oc2ccc(NC(=O)Nc3ccc(Cl)c(C(F)(F)F)c3)c(F)c2)ccn1` in the same way.
Response: inactive

Query: Moving on to `CCCS(=O)(=O)Nc1ccc(F)c(C(=O)c2c[nH]c3ncc(-c4ccc(Cl)cc4)cc23)c1F`
Response: inactive

Query: Similarly, `C[C@@H](c1ccc2nccn2c1)n1nnc2ncc(-c3cnn(C)c3)nc21` ?
Response: inactive

Query: Now the same for `Cn1cc(-c2ccc(F)c(C(F)(F)F)c2)nc1C1CCN(c2ncnc3[nH]ncc23)CC1`
Response: inactive

----------
target: Calcium/calmodulin-dependent protein kinase type II subunit delta (Homo sapiens, UniProt Q13557); note: in the data inactive means no Kd found up to 30 µM
Sequence (Q13557 whole entry): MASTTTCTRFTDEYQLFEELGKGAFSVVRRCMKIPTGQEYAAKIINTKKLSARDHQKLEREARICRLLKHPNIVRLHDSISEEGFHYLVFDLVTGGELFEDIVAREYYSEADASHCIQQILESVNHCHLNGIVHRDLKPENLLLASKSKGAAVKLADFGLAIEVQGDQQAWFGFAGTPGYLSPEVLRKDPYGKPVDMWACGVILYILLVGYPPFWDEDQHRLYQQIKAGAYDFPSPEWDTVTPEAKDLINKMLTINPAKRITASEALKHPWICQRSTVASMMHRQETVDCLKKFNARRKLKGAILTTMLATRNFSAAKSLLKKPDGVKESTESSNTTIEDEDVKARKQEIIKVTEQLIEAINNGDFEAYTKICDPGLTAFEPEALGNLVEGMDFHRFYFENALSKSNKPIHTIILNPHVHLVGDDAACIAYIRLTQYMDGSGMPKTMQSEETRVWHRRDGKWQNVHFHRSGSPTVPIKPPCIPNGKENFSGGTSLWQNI
The source made the active and inactive calls.
Mark one answer only. Choices: yes (active), no (inactive)

Query: // return assay outcome for `COc1cc2nccc(Oc3ccc(NC(=O)NC4CC4)c(Cl)c3)c2cc1C(N)=O`
Response: no

Query: Then COC(=O)[C@@]1(O)C[C@H]2O[C@]1(C)n1c3ccccc3c3c4c(c5c6ccccc6n2c5c31)C(=O)NC4 [K-252A] ?
Response: yes

Query: Could you do the same for `Cc1ccc(NC(=O)c2ccc(CN3CC[C@H](N(C)C)C3)c(C(F)(F)F)c2)cc1Nc1nccc(-c2cncnc2)n1` , please?
Response: no

Query: Same lookup for `COC(=O)N[C@@H](C)CNc1nccc(-c2cn(C(C)C)nc2-c2cc(Cl)cc(NS(C)(=O)=O)c2F)n1` , please.
Response: no

Query: Now give it for `C=CC(=O)N1CCC(Oc2cc3c(Nc4ccc(Cl)c(Cl)c4F)ncnc3cc2OC)CC1` too.
Response: no

Query: Next up: `CN1CC[C@@H](c2c(O)cc(O)c3c(=O)cc(-c4ccccc4Cl)oc23)[C@@H]1CO`
Response: no

Query: Another: `Cc1ccc(S(=O)(=O)Nc2nc3ccccc3nc2Nc2ccc3nsnc3c2)cc1`
Response: no

Query: Repeat for the following compound: `OCCn1cc(-c2cnc3nnn(Cc4ccc5ncccc5c4)c3n2)cn1`
Response: no

Query: Ok, now `COc1cc(OC)c(/C=C/S(=O)(=O)Cc2ccc(OC)c(NCC(=O)O)c2)c(OC)c1`
Response: no

Query: Then `CC(=O)Nc1cccc(-n2c(=O)n(C3CC3)c(=O)c3c(Nc4ccc(I)cc4F)n(C)c(=O)c(C)c32)c1` ?
Response: no

Query: Next compound: `O=c1sn(-c2cccc3ccccc23)c(=O)n1Cc1ccccc1`
Response: no

Query: Here is the next compound: `O=C(c1ccc(F)c(F)c1Nc1ccc(I)cc1F)N1CC(O)([C@@H]2CCCCN2)C1`
Response: no

Query: What do you get for `CCN1CCN(Cc2ccc(-c3cc4c(N[C@H](C)c5ccccc5)ncnc4[nH]3)cc2)CC1` ?
Response: no

Query: Try this compound next: `CN(C)C(=O)c1cc2cnc(Nc3ccc(N4CCNCC4)cn3)nc2n1C1CCCC1`
Response: yes

Query: Further, for `Cn1ncc(Cl)c1-c1cc(C(=O)N[C@H](CN)Cc2cccc(F)c2)sc1Cl` ?
Response: no

Query: What do you have for `N[C@@H]1CCCN(c2c(/C=C3\SC(=O)NC3=O)cccc2-c2ccccc2)C1` ?
Response: no

Query: Proceed to `CNC(=O)c1ccc(-c2cnc3ncc(Cc4ccc5ncccc5c4)n3n2)cc1F`
Response: no
